Values compiled from ChEMBL document CHEMBL4390675.

Assay system: D(2) dopamine receptor (Homo sapiens)
Sequence (P14416 whole entry): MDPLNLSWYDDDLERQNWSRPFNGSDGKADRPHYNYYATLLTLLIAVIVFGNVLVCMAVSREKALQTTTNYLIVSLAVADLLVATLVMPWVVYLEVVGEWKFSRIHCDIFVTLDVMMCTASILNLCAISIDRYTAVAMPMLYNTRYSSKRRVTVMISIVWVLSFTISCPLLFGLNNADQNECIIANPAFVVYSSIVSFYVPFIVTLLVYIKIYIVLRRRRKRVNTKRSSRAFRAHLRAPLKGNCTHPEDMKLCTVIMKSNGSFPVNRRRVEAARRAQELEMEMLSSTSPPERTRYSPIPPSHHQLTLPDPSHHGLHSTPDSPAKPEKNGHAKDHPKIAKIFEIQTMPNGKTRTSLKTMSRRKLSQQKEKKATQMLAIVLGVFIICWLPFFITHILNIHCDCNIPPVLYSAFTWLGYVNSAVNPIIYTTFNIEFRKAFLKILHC
Assay remarks: Agonist activity at human D2L receptor expressed in CHOK1 cells assessed as induction of beta-arrestin recruitment measured after 90 mins by luminescence assay relative to control
Format: cell-based
Flag rule - Emax less than 40% flags 1; the remaining entries get 0.

                         compound_smiles  assigned_class
0  Cc1cccc(NC(=O)CCN2CCC(c3ccccn3)CC2)c1               0
1  Cc1cccc(NC(=O)CCN2CCN(c3ccccn3)CC2)c1               0
2   Cc1cccc(NC(=O)CN2CCN(c3ccccn3)CC2)c1               1
3      O=C(CN1CCN(c2ccccn2)CC1)Nc1cccnc1               1
4  CCc1cccc(NC(=O)CN2CCN(c3ccccn3)CC2)c1               1

###

Assay system: D(4) dopamine receptor (Homo sapiens, UniProt P21917)
Sequence (P21917 whole entry): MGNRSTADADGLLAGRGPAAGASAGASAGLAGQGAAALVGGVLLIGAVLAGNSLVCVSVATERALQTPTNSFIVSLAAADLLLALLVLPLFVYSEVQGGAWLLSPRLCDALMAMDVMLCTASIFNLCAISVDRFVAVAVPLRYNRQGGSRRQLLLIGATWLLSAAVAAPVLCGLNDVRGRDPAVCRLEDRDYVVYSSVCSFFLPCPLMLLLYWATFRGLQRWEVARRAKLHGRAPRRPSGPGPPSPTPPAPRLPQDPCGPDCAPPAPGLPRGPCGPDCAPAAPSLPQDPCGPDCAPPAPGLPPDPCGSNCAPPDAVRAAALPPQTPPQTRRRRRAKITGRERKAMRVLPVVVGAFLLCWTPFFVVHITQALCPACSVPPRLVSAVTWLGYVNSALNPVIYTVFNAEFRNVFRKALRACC
Assay remarks: Agonist activity at human D4 receptor expressed in CHOK1 cells assessed as inhibition of forskolin-induced cAMP accumulation measured after 30 mins by Eu-cAMP tracer based TR-FRET assay
Assay type: functional, cell-based
Experimental parameters: read-out: EC50
pEC50: −log10 of the molar value.
Returns one of Met or Not met; Met when pEC50 is >= 7.

>>> df
                         compound_smiles                              assay_system  assigned_class
0  Cc1cccc(NC(=O)CCN2CCN(c3ncccn3)CC2)c1  D(4) dopamine receptor (Homo sapiens, UniProt P21917)         Not met
1      O=C(CN1CCN(c2ccccn2)CC1)Nc1cccnc1  D(4) dopamine receptor (Homo sapiens, UniProt P21917)         Not met
2   Cc1cccc(NC(=O)CN2CCN(c3ccccn3)CC2)c1  D(4) dopamine receptor (Homo sapiens, UniProt P21917)             Met
3   Cc1cccc(NC(=O)CN2CCC(c3ccccc3)CC2)c1  D(4) dopamine receptor (Homo sapiens, UniProt P21917)             Met

###

Assay system: D(4) dopamine receptor (Homo sapiens, UniProt P21917)
Assay remarks: Displacement of [3H]N-methylspiperone from human D4.4 receptor expressed in HEK293 cell membranes measured after 60 mins by scintillation counting method
The entries below are paired with their reported Ki.
Measured attribute: Ki (nM)

                             compound_smiles  measured_attribute  readout_units  rel  value_observed
 0         O=C(CN1CCN(c2ccccn2)CC1)Nc1cncnc1                  Ki             nM    =           39300
 1  Cc1cccc(NC(=O)CN2CCN(c3ccc(Cl)cn3)CC2)c1                  Ki             nM    =              95
 2         O=C(CN1CCN(c2ccccn2)CC1)Nc1cccnc1                  Ki             nM    =            6410
 3     CCc1cccc(NC(=O)CN2CCN(c3ccccn3)CC2)c1                  Ki             nM    =            67.9
 4      Cc1cccc(NC(=O)CN2CCC(c3ccccc3)CC2)c1                  Ki             nM    =            25.8
 5     CCc1cccc(NC(=O)CN2CCC(c3ccccn3)CC2)c1                  Ki             nM    =            82.3
 6   Cc1ccc(C2CCN(CC(=O)Nc3cccc(C)c3)CC2)nc1                  Ki             nM    =            41.7
 7      Cc1cccc(NC(=O)CN2CCN(c3ncccn3)CC2)c1                  Ki             nM    =             318
 8      Cc1cccc(NC(=O)CN2CCC(c3ccccn3)CC2)c1                  Ki             nM    =            54.2
 9  Cc1cccc(NC(=O)CN2CCN(c3cccc4ccccc34)CC2)c1                  Ki             nM    =            28.4
10     Cc1cccc(NC(=O)CCN2CCC(c3ccccn3)CC2)c1                  Ki             nM    >           10000
11      Cc1cccc(NC(=O)CN2CCN(c3ccccn3)CC2)c1                  Ki             nM    =             212
12     Cc1cccc(NC(=O)CCN2CCN(c3ncccn3)CC2)c1                  Ki             nM    =             526
13     O=C(CN1CCN(c2ccc(Cl)cn2)CC1)Nc1cccnc1                  Ki             nM    =            5000
14  CCc1cccc(NC(=O)CN2CCN(c3ccc(Cl)cn3)CC2)c1                  Ki             nM    =             172
15     O=C(CN1CCN(c2ccc(Cl)cn2)CC1)Nc1cncnc1                  Ki             nM    >           50000
16   Cc1ccc(C2CCN(CC(=O)Nc3cccc(C)c3)CC2)cc1                  Ki             nM    =             110
17     Cc1cccc(NC(=O)CCN2CCN(c3ccccn3)CC2)c1                  Ki             nM    =             297

###

Assay system: D(1B) dopamine receptor (Homo sapiens)
Assay remarks: Agonist activity at D5 receptor (unknown origin) stably expressed in CHOK1 cells assessed as induction of beta-arrestin recruitment measured after 90 mins by luminescence assay
Assay type: cell-based
Activity calls are given as the source filed them. The calls are words filed in the database; no cut-off is given here.
Measured attribute: Activity

                         compound_smiles  value_observed
0  Cc1cccc(NC(=O)CCN2CCN(c3ccccn3)CC2)c1        inactive
1  Cc1cccc(NC(=O)CCN2CCC(c3ccccn3)CC2)c1        inactive
2   Cc1cccc(NC(=O)CN2CCN(c3ccccn3)CC2)c1        inactive
3   Cc1cccc(NC(=O)CN2CCN(c3ncccn3)CC2)c1        inactive
4   Cc1cccc(NC(=O)CN2CCC(c3ccccn3)CC2)c1        inactive
5   Cc1cccc(NC(=O)CN2CCC(c3ccccc3)CC2)c1        inactive
6  Cc1cccc(NC(=O)CCN2CCN(c3ncccn3)CC2)c1        inactive

###

Assay system: D(4) dopamine receptor (Homo sapiens) (UniProt P21917)
Sequence (whole entry): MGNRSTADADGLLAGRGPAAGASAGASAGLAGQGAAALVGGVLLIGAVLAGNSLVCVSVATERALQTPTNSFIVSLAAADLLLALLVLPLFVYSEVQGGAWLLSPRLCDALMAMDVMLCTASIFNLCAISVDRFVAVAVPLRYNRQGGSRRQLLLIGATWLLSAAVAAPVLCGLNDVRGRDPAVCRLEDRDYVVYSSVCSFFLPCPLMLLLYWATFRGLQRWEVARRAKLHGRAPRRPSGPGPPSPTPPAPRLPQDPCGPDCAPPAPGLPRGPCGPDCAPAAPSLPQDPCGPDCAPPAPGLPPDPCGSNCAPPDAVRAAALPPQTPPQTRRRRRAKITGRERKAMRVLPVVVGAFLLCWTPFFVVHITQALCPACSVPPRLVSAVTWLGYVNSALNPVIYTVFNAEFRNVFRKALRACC
Assay remarks: Agonist activity at human D4 receptor expressed in CHOK1 cells assessed as induction of beta-arrestin recruitment measured after 90 mins by luminescence assay relative to control
Format: cell-based
We label by threshold. Values of Emax strictly beneath 20% are TRUE. Values of 20% and up are FALSE.

>>> df
                            compound_smiles  assigned_class
0         O=C(CN1CCN(c2ccccn2)CC1)Nc1cccnc1            TRUE
1      Cc1cccc(NC(=O)CN2CCN(c3ncccn3)CC2)c1           FALSE
2  Cc1cccc(NC(=O)CN2CCN(c3cccc4ccccc34)CC2)c1            TRUE
3      Cc1cccc(NC(=O)CN2CCN(c3ccccn3)CC2)c1           FALSE
4      Cc1cccc(NC(=O)CN2CCC(c3ccccc3)CC2)c1            TRUE
5      Cc1cccc(NC(=O)CN2CCC(c3ccccn3)CC2)c1           FALSE
6     CCc1cccc(NC(=O)CN2CCN(c3ccccn3)CC2)c1           FALSE
